# tgt: T1, bacterially produced human IL-6 (human, UniProt P05231 30-212)
# T1 construct: also called bactIL-6; prokaryotic IL-6
# assay: SPR; purified Fab over biotinylated IL-6 on streptavidin chip
List of Kd values.
A number alone suffices; assume nM.

Fab 20A4 (Fab, V domains shown, Fab) VH: EVQLQESGPGLVKPSQTLSLTCTVSGGSITTRYYAWSWIRQPPGKGLEWMGVIDYDGDTYYSPSLKSRTSISWDTSKNQFSLQLSSVTPEDTAVYYCARDPDVVTGFHYDYWGQGTQVTVSS VL: LNFMLTQPPSVSGTLGKTVTISCAGTSSDIGGYNYVSWYQQLPGTAPKLLIHRVSTRASGIPDRFSGSKSGNTASLTISGLRSEDEANYYCASYRNFNNAVFGGGTQLTVLG | 5.82

Q. Need Kd of Fab 29B11 (Fab, V domains shown, Fab) VH: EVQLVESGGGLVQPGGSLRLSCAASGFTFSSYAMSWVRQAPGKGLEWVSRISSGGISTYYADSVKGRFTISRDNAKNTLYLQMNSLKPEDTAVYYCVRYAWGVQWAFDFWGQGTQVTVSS VL: QSVLTQPPSVSGSPGQTVTISCAGTSEDVGYGNYVSWYQQLPGMAPKLLIYDVNKRASGIADRFSGSKSGNTASLTISGLQSEDEADYYCASYRRTIDNIFGGGTHLTVLG , thanks.
A. 22.9

Q. Given the binder Fab 18F8 (Fab, V domains shown, Fab) VH: EVQLVESGGGLVQPGGSLRLSCAASGFTFSRNAMSWVRQAPGKGLEWVSAINSGGGSTSYADSVKGRFTISRDNAKNTLYLQMNSLKPEDTAVYYCAKEGYTGWKDPMYDYWGQGTQVTVSS VL: QSALTQPSALSVTLGQTAKITCQGGSLGSRYAHWYQQKPGQAPVLVIYDDDSRPSGIPERFSGSSSGGRATLTISGAQAEDEGDYYCQSADTSEHIVFGGGTHLTVLG , what is its reported Kd?
A. 16.2
